Data origin, for the record: patent US20210179680A1

Listed binders paired with reported pKd
EXPERIMENTAL_SYSTEM: T1, Purified TRB3 protein (purchased from RD) (UniProt Q96RU7 1-358, limits assumed)
T1 construct: Amine-coupled to the Biacore chip; also called Tribbles Homologue 3
T1 sequence (looked up): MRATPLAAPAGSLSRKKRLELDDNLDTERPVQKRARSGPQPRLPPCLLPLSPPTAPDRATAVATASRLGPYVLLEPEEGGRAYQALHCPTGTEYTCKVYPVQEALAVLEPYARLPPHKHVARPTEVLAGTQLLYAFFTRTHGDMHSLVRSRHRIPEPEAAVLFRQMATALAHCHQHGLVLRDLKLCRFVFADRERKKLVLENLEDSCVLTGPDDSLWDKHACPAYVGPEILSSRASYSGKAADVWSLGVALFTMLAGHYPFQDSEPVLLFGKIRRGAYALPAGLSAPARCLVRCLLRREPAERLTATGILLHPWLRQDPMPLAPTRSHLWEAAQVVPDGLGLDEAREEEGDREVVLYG
ASSAY_DETAILS: SPR, Biacore T200, TRB3 amine-coupled to chip, peptide as analyte, 25° C.
pKd: −log10 of the molar value. Bridge positions count the residues as written; N and C are the ends. Square brackets hold non-standard residues; d marks the D form. Ends that are not written are not given here. S5 = C=CCCC[C@](C)(N)C(=O)O
ENDPOINT: pKd

>  <BINDER>
HLMAC[S5]TCA[S5]KLKKR (staple 6-10; cysteine pairing not given here, Stapled variant of MR2) [polypeptide S6]

>  <ENDPOINT>
pKd

>  <MEASUREMENT>
7.30

$$$$
>  <BINDER>
[S5]LMA[S5]FTCAKKLKKR (staple 1-5, Stapled variant of MR2) [polypeptide S1]

>  <ENDPOINT>
pKd

>  <MEASUREMENT>
7.69

$$$$
>  <BINDER>
HLMA[S5]FTC[S5]KKLKKR (staple 5-9, Stapled variant of MR2) [polypeptide S5]

>  <ENDPOINT>
pKd

>  <MEASUREMENT>
7.94

$$$$
>  <BINDER>
HLMACFTCA[S5]KLK[S5]R (staple 10-14; cysteine pairing not given here, Stapled variant of MR2) [polypeptide S10]

>  <ENDPOINT>
pKd

>  <MEASUREMENT>
7.53

$$$$
